The values you see were collected from patent US4824944A.

protocol_summary: Acute toxicity in mice after intraperitoneal administration (LD50, 24 hours)
Format: in vivo
condition_label: mouse, in vivo, ip; mice, intraperitoneal, death of one-half after 24 hours
# Lookup of reported LD50 at 24 h keyed by entry
measured_endpoint: LD50 at 24 h (mg/kg)

INSERT INTO measurements (smiles_repr, measured_result) VALUES
  ('COc1cccc2c1C(=O)c1c(O)c3c(c(O)c1C2=O)C[C@@](O)(C(C)=O)C[C@@H]3O[C@H]1C[C@H](N)[C@H](O)[C@H](C)O1', 135),
  ('COc1cccc2c1C(=O)c1c(O)c3c(c(O)c1C2=O)C[C@@](O)(C(C)=O)C[C@@H]3O[C@H]1C[C@H](NC(C)=CC(C)=O)[C@H](O)[C@H](C)O1', 500),
  ('CCOC(=O)C=C(C)N[C@H]1C[C@H](O[C@H]2C[C@](O)(C(C)=O)Cc3c(O)c4c(c(O)c32)C(=O)c2c(OC)cccc2C4=O)O[C@@H](C)[C@H]1O', 500);
